Test system: Mus musculus
Test: Antiinflammatory activity in CD1 mouse assessed as inhibition of croton oil-induced ear edema at 0.1 umol administered topically per cm'2 of ear relative to control
Type: functional
Please note: met applies when inhibition (INH) is 20% or greater, and not met applies otherwise.

Field: example entries. Status: answers known.
- COMPOUND: "CC(C)=CCOc1ccc(/C=C/C(=O)O)cc1Cl"
  CLASS ASSIGNMENT: "met"
- COMPOUND: "COc1ccc2c(c1)c(CC(=O)O)c(C)n2C(=O)c1ccc(Cl)cc1"
  CLASS ASSIGNMENT: "met"

## Task In plain terms: is recorded inhibition (INH) at least 20% for CC(Cc1ccc(O)c(O)c1)C(C)Cc1ccc(O)c(O)c1 (stereo not drawn) [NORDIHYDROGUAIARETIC ACID] ?
## Result not met

## Task In plain terms: is recorded inhibition (INH) at least 20% for CC(C)=CCOc1ccc(/C=C/C(=O)O)cc1I ?
## Result met

====

Test system: Mus musculus
Test: Antiinflammatory activity in CD1 mouse assessed as inhibition of croton oil-induced ear edema at 0.1 umol administered topically per cm'2 of ear relative to control
Assay type: functional
READOUT LABEL: inhibition (INH) (%)
One number for each entry, in %.

- COMPOUND: "CC(C)=CCOc1ccc(/C=C/C(=O)O)cc1"
  READOUT LABEL: "inhibition (INH)"
  UNIT ABBREVIATION: "%"
  ASSAY RESULT: 13
- COMPOUND: "CC(C)=CCOc1ccc(/C=C/C(=O)O)cc1N"
  READOUT LABEL: "inhibition (INH)"
  UNIT ABBREVIATION: "%"
  ASSAY RESULT: 22
- COMPOUND: "CC(C)=CCOc1ccc(/C=C/C(=O)O)cc1[N+](=O)[O-]"
  READOUT LABEL: "inhibition (INH)"
  UNIT ABBREVIATION: "%"
  ASSAY RESULT: 33

## Task Tell me inhibition (INH) reported for COc1cc(/C=C/C(=O)O)ccc1OCC=C(C)C [BOROPINIC ACID]
## Result 12
